- testTarget: Stb5 (UniProt P38699)
- Sequence: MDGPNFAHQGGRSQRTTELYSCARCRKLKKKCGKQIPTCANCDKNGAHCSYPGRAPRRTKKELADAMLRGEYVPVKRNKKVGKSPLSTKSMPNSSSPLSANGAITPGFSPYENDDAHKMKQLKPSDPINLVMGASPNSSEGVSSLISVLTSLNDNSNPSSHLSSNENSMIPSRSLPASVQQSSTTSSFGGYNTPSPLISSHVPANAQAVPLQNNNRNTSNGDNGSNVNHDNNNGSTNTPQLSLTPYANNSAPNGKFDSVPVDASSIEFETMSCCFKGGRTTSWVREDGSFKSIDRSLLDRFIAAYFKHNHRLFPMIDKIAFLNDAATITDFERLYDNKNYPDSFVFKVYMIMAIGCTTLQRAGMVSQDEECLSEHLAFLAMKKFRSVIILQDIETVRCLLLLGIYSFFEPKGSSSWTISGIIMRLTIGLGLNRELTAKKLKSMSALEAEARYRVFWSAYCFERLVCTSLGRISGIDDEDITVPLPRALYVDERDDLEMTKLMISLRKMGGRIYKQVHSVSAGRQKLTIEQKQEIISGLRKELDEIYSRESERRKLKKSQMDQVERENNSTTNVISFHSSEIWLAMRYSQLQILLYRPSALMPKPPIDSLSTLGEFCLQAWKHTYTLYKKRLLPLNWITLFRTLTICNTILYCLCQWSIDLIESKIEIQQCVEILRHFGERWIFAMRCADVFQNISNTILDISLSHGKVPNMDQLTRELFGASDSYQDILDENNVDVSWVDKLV
- methodDescription: PBM E-score (8-mer binding enrichment) (E-score (-0.5 to 0.5)); higher = stronger / more preferred TF binding
- studyConditions: protein concentration: 200 nM; construct: GST-full length
The full ranking holds about 33,000 sequences; the median of “E-score (-0.5 to 0.5)” is about -0.054, and the highest 2% start at about 0.35. The full list was thinned out, with the highest values kept by preference.
Consider the following sequences; for each one, report its PBM E-score.

Please report the measured PBM E-score for AGGCAGTA
-0.205

Please report the measured PBM E-score for GGAACAGA
-0.104

Please report the measured PBM E-score for CCGCTACA
0.262

Please report the measured PBM E-score for CCGCTCCG
0.361

Please report the measured PBM E-score for ACGCTCCG
0.174

Please report the measured PBM E-score for AGAGGTAC
-0.205

Please report the measured PBM E-score for ACGCTACG
-0.187

Please report the measured PBM E-score for GGTCGCGA
-0.0386

Please report the measured PBM E-score for GGGTGACA
0.0889

Please report the measured PBM E-score for AAACCCGC
0.414

Please report the measured PBM E-score for CGGCAATA
0.454

Please report the measured PBM E-score for GACCCCGC
0.391

Please report the measured PBM E-score for CCTCTGAG
-0.141

Please report the measured PBM E-score for TACCCCCA
-0.114

Please report the measured PBM E-score for CGGTGACA
0.42

Please report the measured PBM E-score for CGGTGAAA
0.41

Please report the measured PBM E-score for GATGGGTA
-0.205

Please report the measured PBM E-score for ACGCTCGC
-0.078

Please report the measured PBM E-score for TGGTGACA
0.0421

Please report the measured PBM E-score for CGGCAGTC
0.11

Please report the measured PBM E-score for CCTGATCC
-0.125

Please report the measured PBM E-score for GACCCCCC
-0.259
